molecular target: 20S proteasome in HT-29 cell lysates, C-L activity (Homo sapiens); experiment: Proteasome inhibition assay in cell lysates, HT-29, C-L; details: at 100 µM; Table 2 legend: bortezomib 10 µM
Sequence (P28072 35-239 limits assumed): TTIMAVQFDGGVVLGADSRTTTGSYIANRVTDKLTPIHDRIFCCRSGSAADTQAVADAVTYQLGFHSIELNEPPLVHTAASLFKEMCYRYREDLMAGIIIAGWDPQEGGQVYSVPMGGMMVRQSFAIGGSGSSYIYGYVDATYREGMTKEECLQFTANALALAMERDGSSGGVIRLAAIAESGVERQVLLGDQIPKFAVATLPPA
Sequence (Q99436 44-277 partner): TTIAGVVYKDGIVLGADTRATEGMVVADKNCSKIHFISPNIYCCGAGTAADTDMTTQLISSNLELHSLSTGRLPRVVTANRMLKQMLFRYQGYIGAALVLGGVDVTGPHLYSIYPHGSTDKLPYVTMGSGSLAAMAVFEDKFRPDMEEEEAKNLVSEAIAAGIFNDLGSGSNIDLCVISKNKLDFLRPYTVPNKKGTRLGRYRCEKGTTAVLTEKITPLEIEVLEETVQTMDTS
// values below are reported percentage of proteasome inhibition, C-L, cell lysates HT-29
Value expressed in %; do not type the unit.

Examples with their reported percentage of proteasome inhibition, C-L, cell lysates HT-29 follow.
Cc1ccc2ccccc2c1CSc1ncnc2c1ncn2C1OC(CO)C(O)C1O (centres unmarked) [Compound 1] ... 76
O=C1c2ccccc2C(=O)c2c(Nc3ccc(S(=O)(=O)N(CCO)CCO)cc3)ccc(O)c21 [Compound 2] ... 69
Cc1ccc(/C(=N/NS(=O)(=O)c2ccc([N+](=O)[O-])cc2)Sc2cc(Cl)c(C)cc2S(N)(=O)=O)cc1 [Compound 3] ... 19
C#CCCN1CCN(c2ccc(-n3c(=O)ccc4cnc5ccc(-c6ccc(N)nc6)cc5c43)cc2C(F)(F)F)CC1 [Compound 4] ... 82

Query compound follows.
Quick note, percentage of proteasome inhibition, C-L, cell lysates HT-29 for CC(C)c1nc(CN(C)C(=O)N[C@@H](CCN2CCOCC2)C(=O)N[C@H](CC[C@H](Cc2ccccc2)NC(=O)OCc2cncs2)Cc2ccccc2)cs1 [Compound 5, cobicistat, reference compound] landed at 29

* * *

molecular target: 20S proteasome in HT-29 cell lysates, CT-L activity (Homo sapiens); experiment: Proteasome inhibition assay in cell lysates, HT-29, CT-L; conditions: at 100 µM; Table 2 legend: bortezomib 10 µM
// values below are reported percentage of proteasome inhibition, CT-L, cell lysates HT-29
Output should be the measured figure followed by the unit it is expressed in.

Quick note, percentage of proteasome inhibition, CT-L, cell lysates HT-29 for "Cc1ccc(/C(=N/NS(=O)(=O)c2ccc([N+](=O)[O-])cc2)Sc2cc(Cl)c(C)cc2S(N)(=O)=O)cc1" landed at 31%

Quick note, percentage of proteasome inhibition, CT-L, cell lysates HT-29 for "C#CCCN1CCN(c2ccc(-n3c(=O)ccc4cnc5ccc(-c6ccc(N)nc6)cc5c43)cc2C(F)(F)F)CC1" landed at 98%

Quick note, percentage of proteasome inhibition, CT-L, cell lysates HT-29 for Cc1ccc2ccccc2c1CSc1ncnc2c1ncn2C1OC(CO)C(O)C1O (centres unmarked) landed at 62%

Quick note, percentage of proteasome inhibition, CT-L, cell lysates HT-29 for "O=C1c2ccccc2C(=O)c2c(Nc3ccc(S(=O)(=O)N(CCO)CCO)cc3)ccc(O)c21" landed at 62%

Quick note, percentage of proteasome inhibition, CT-L, cell lysates HT-29 for CC(C)c1nc(CN(C)C(=O)N[C@@H](CCN2CCOCC2)C(=O)N[C@H](CC[C@H](Cc2ccccc2)NC(=O)OCc2cncs2)Cc2ccccc2)cs1 [Compound 5, cobicistat, reference compound] landed at 81%

* * *

experiment: Cell viability, MTT assay, HCT116; assay type: cell-based, human; conditions: human, HCT116 colorectal carcinoma cells, at 10 µM, read-out: percentage of cell viability, MTT, HCT-116
READOUT: viability at 72 h, 10 µM
Output should be the measured figure followed by the unit it is expressed in.

Examples with their reported viability at 72 h, 10 µM follow.
O=C1c2ccccc2C(=O)c2c(Nc3ccc(S(=O)(=O)N(CCO)CCO)cc3)ccc(O)c21 ... 98%
C#CCCN1CCN(c2ccc(-n3c(=O)ccc4cnc5ccc(-c6ccc(N)nc6)cc5c43)cc2C(F)(F)F)CC1 ... 38.4%

Quick note, viability at 72 h, 10 µM for CC(C)c1nc(CN(C)C(=O)N[C@@H](CCN2CCOCC2)C(=O)N[C@H](CC[C@H](Cc2ccccc2)NC(=O)OCc2cncs2)Cc2ccccc2)cs1 [Compound 5, cobicistat, reference compound] landed at 98.7%

Quick note, viability at 72 h, 10 µM for CC(C)C[C@H](NC(=O)[C@H](Cc1ccccc1)NC(=O)c1cnccn1)B(O)O [Bortezomib, bortezomib, reference compound] landed at 0%

Quick note, viability at 72 h, 10 µM for "Cc1ccc(/C(=N/NS(=O)(=O)c2ccc([N+](=O)[O-])cc2)Sc2cc(Cl)c(C)cc2S(N)(=O)=O)cc1" landed at 100%

Quick note, viability at 72 h, 10 µM for Cc1ccc2ccccc2c1CSc1ncnc2c1ncn2C1OC(CO)C(O)C1O (stereo not drawn) landed at 95.5%

* * *

molecular target: isolated human 20S proteasome, CT-L activity (Homo sapiens, UniProt P20618+P28074); construct: human purified erythrocyte-derived 20S proteasome; purchased Enzo Life Sciences, Inc; host or cells: human erythrocytes (natural source); assay: Proteasome inhibition assay in isolated human 20S proteasomes (Proteasome-Glo), CT-L activity; format: biochemical; details: at 10 µM; read-out: percentage of proteasome inhibition, CT-L, isolated 20S proteasome
// values below are reported inhibition at 10 µM
Value expressed in %; do not type the unit.

Examples with their reported inhibition at 10 µM follow.
O=C1c2ccccc2C(=O)c2c(Nc3ccc(S(=O)(=O)N(CCO)CCO)cc3)ccc(O)c21 ... 81.3
Cc1ccc2ccccc2c1CSc1ncnc2c1ncn2C1OC(CO)C(O)C1O (centres unmarked) ... 0
CC(C)C[C@H](NC(=O)[C@H](Cc1ccccc1)NC(=O)c1cnccn1)B(O)O [Bortezomib, bortezomib, reference compound] ... 91
C#CCCN1CCN(c2ccc(-n3c(=O)ccc4cnc5ccc(-c6ccc(N)nc6)cc5c43)cc2C(F)(F)F)CC1 ... 3.3

Query molecule follows.
Quick note, inhibition at 10 µM for CC(C)c1nc(CN(C)C(=O)N[C@@H](CCN2CCOCC2)C(=O)N[C@H](CC[C@H](Cc2ccccc2)NC(=O)OCc2cncs2)Cc2ccccc2)cs1 [Compound 5, cobicistat, reference compound] landed at 2.85

* * *

// values below are reported inhibition at 10 µM
Target: 20S proteasome in HT-29 cell lysates, CT-L activity (Homo sapiens, UniProt P28074)
Sequence (P28074 60-263): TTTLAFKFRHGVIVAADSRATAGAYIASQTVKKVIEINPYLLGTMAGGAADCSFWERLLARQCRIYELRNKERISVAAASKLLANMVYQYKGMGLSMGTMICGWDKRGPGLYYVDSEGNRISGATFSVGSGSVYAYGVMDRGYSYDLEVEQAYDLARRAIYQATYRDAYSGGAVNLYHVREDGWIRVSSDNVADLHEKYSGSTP
Sequence (P20618 29-241 partner): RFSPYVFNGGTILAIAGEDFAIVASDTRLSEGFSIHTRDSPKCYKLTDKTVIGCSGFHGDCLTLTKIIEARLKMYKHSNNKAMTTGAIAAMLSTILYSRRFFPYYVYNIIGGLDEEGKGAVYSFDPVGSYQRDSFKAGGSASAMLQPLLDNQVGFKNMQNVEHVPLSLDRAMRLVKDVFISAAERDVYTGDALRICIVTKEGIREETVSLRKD
Test: Proteasome inhibition assay in cell lysates, HT-29, CT-L
Settings: read-out: percentage of proteasome inhibition, CT-L, cell lysates HT-29, at 10 µM
Value expressed in %; do not type the unit.

Examples with their reported inhibition at 10 µM follow.
CC(C)c1nc(CN(C)C(=O)N[C@@H](CCN2CCOCC2)C(=O)N[C@H](CC[C@H](Cc2ccccc2)NC(=O)OCc2cncs2)Cc2ccccc2)cs1 [Compound 5, cobicistat, reference compound] ... 0
Cc1ccc(/C(=N/NS(=O)(=O)c2ccc([N+](=O)[O-])cc2)Sc2cc(Cl)c(C)cc2S(N)(=O)=O)cc1 ... 0
O=C1c2ccccc2C(=O)c2c(Nc3ccc(S(=O)(=O)N(CCO)CCO)cc3)ccc(O)c21 ... 2.11
C#CCCN1CCN(c2ccc(-n3c(=O)ccc4cnc5ccc(-c6ccc(N)nc6)cc5c43)cc2C(F)(F)F)CC1 ... 10.1

Query molecule follows.
The molecule Cc1ccc2ccccc2c1CSc1ncnc2c1ncn2C1OC(CO)C(O)C1O (centres unmarked) , tested on 20S proteasome in HT-29 cell lysates, CT-L activity (Homo sapiens, UniProt P28074), showed inhibition at 10 µM of 0

* * *

assay: Cell viability, MTT assay, HT-29; format: cell-based, human; conditions: human, HT-29 colorectal carcinoma cells, at 100 µM, read-out: percentage of cell viability, MTT, HT-29
// values below are reported viability at 72 h, 100 µM
Value expressed in %; do not type the unit.

Examples with their reported viability at 72 h, 100 µM follow.
O=C1c2ccccc2C(=O)c2c(Nc3ccc(S(=O)(=O)N(CCO)CCO)cc3)ccc(O)c21 [Compound 2] ... 65.4
CC(C)c1nc(CN(C)C(=O)N[C@@H](CCN2CCOCC2)C(=O)N[C@H](CC[C@H](Cc2ccccc2)NC(=O)OCc2cncs2)Cc2ccccc2)cs1 [Compound 5, cobicistat, reference compound] ... 25.4
CC(C)C[C@H](NC(=O)[C@H](Cc1ccccc1)NC(=O)c1cnccn1)B(O)O [Bortezomib, bortezomib, reference compound] ... 0

Quick note, viability at 72 h, 100 µM for Cc1ccc2ccccc2c1CSc1ncnc2c1ncn2C1OC(CO)C(O)C1O (stereo not drawn) [Compound 1] landed at 23.3

Quick note, viability at 72 h, 100 µM for Cc1ccc(/C(=N/NS(=O)(=O)c2ccc([N+](=O)[O-])cc2)Sc2cc(Cl)c(C)cc2S(N)(=O)=O)cc1 [Compound 3] landed at 100

Quick note, viability at 72 h, 100 µM for C#CCCN1CCN(c2ccc(-n3c(=O)ccc4cnc5ccc(-c6ccc(N)nc6)cc5c43)cc2C(F)(F)F)CC1 [Compound 4] landed at 34.3

Taken from paper PMC10458307.
